# Measured Target: vascular endothelial growth factor (VEGF) (UniProt P15692-4 27-191, limits assumed)
# Sequence (P15692 other isoform, or with tags, fused parts or gaps limits assumed): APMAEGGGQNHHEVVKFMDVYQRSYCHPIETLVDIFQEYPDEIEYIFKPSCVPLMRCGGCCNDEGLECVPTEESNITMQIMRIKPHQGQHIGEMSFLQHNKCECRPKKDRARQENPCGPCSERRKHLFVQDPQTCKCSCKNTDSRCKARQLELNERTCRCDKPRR
# Experiment Summary: cell-based or functional assay
Positions of bridges follow the written chain, without caps; N, C: chain ends.
Experimental Endpoint: IC50, p42 (µM)
Answer format: numeric, µM implied, no suffix.

Sure, the documented IC50, p42 for GDGD (designed binder, linker N-C via 3‑aminomethyl‑5‑aminobenzamide; also: four loops on But-Calix calix[4]arene scaffold) [GFB-107] is 100
